Assay: Spasmogenic activity in nulliparous guinea pig uterine relative to PGE2
Assay type: functional, Cavia porcellus, Uterus
// label = class 1 if fold change (FC) is not less than 20, otherwise class 0

| smiles.text | label.class |
| --- | --- |
| CCCCC[C@H](O)/C=C/[C@@H]1[C@@H](C/C=C\CCCC(=O)O)[C@@H](O)C[C@H]1O | class 0 |
| CCCCC[C@H](O)/C=C/[C@@H]1[C@@H](C/C=C\CCCc2nnn[nH]2)[C@@H](O)C[C@H]1O | class 0 |
| CCCCC[C@H](O)/C=C/[C@H]1[C@H](O)CC(=O)[C@@H]1C/C=C\CCCC(=O)NC(=O)NCC | class 0 |
| CCCCC[C@H](O)/C=C/[C@@H]1[C@@H](C/C=C\CCCC(=O)NC(=O)NCC)[C@@H](O)C[C@H]1O | class 0 |
| CCCCC[C@H](O)/C=C/[C@@H]1[C@@H](C/C=C\CCCC(=O)NC(=O)c2ccccc2)[C@@H](O)C[C@H]1O | class 0 |
| CCCCC(C)(C)[C@H](O)/C=C/[C@H]1[C@H](O)CC(=O)[C@@H]1C/C=C\CCCC(=O)O | class 1 |
| CCCCC(C)(C)[C@H](O)/C=C/[C@H]1[C@H](O)CC(=O)[C@@H]1C/C=C\CCCC(=O)NS(C)(=O)=O | class 1 |
| CCCCC[C@H](O)/C=C/[C@H]1[C@H](O)CC(=O)[C@@H]1C/C=C\CCCC(=O)NC(=O)c1ccccc1 | class 1 |
